System: MS2 coat protein
TEST_PROTOCOL: apparent KD of MS2 coat protein; designed switch direction (-1 OFF switch, 1 ON switch): -1; higher = weaker reporter binding
CONDITION_LABEL: input ligand: microRNA oligo, concentration not stated
MEASURED_PROPERTY: apparent KD of MS2 coat protein
Could you give the number and then its unit, please?

Worked cases, apparent KD of MS2 coat protein given:
* UUAUAGUAUGUAGGAUAUCGGUCAGUUUCUGAUCGAGAAGGACAUGAGGAUCACCCAUGUAAGGCUACCGGUUUCUGGUGGCCG [JL ENG1 3.53] (Eterna round: R96, puzzle: Exclusion NG 1) | 16.5 nM
* UCAGUUUUGCGAGGAUAUCGACCAUUCCUCUUUACAUGAGGAUCACCCAUGUGCUUAUCCUACAACGAGAAGGCGCUCAUACUC [JR_ExcNG2_Sub065] (Eterna round: R96, puzzle: Exclusion NG 2) | 580 nM

Switching to the query record.
Return apparent KD of MS2 coat protein for the following sequence: AAGAAGACAGGAUAUACAUGAAAGAAAGAAAAGAAAAGAAAACAUGAGGAUCACCCAUGUAGAAGGGUCAAGAA [EteRNA is fun!] (Eterna round: R96, puzzle: Exclusion 2)
35.8 nM
